Assay: self-splicing fitness, log relative to wild type (ln ratio); higher = more splicing; Tetrahymena group I intron in knt gene, E. coli kanamycin selection, DiMSum; sequences stand for … in CUCUCU…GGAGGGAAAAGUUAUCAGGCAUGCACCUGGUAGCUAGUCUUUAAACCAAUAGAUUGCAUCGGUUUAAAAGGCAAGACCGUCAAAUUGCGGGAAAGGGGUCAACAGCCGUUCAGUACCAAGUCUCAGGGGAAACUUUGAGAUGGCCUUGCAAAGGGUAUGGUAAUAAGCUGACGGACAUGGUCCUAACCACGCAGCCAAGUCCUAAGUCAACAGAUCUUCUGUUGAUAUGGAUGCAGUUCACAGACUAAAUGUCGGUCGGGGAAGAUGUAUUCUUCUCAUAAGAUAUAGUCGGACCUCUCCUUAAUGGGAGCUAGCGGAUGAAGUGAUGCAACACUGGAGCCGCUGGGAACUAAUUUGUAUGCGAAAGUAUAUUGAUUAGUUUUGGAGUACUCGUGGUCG;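 also: selection with 25 µg/mL kanamycin versus none on LB agar overnight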
Conditions: 30 °C
metric-name: self-splicing fitness (ln)
Output: the number by itself.

See these solved cases before continuing.
ACGGAGCAAUAUUACGUCUG | -1.94
CAAAAGCAAUAUUACGGGCU | -3.65
UACAAGCAAUAUUACGACAG | -1.15
CAAUAGCAAUAUUACGGGCG | 0.548
UACGAGCAAUAUUACGAGCU | -2.28
AGUCAGCAAUAUUACGAAGU | -1.48

Any idea what self-splicing fitness (ln) was measured for `CCAGAGCAAUAUUACGAUGG` ?
-4.18

Same thing, different sequence: `GCAUAGCAAUAUUACGAAAG`
-2.72

How about this sequence: `GGCCAGCAAUAUUACGAUCA`
-2.93

Thanks! And `GGUAAGCAAUAUUACGGCCA` ?
-1.91

Item: `ACAAAGCAAUAUUACGUCGU`
-2.74
